System: Noggin (protein binding on small-molecule microarray)
Experiment: Noggin binders on small-molecule microarray, primary screen, biochemical, 635/667 nm fluorescence (AID 1095);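 further: score merges 667 nm feature fluorescence with signal to noise over triplicate slides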
Settings: 635 nm fluorescence, higher = more signal
metric: composite z-score
Just the number, please, no unit after it.

Below, 8 compounds whose answers are already recorded.
Give the measured composite z-score of `CN1C(=O)[C@]2(Cc3ccccc3)N=C(c3ccc(OCCCO)cc3)O[C@@H]2c2ccccc21` .
1.34

Next up: `COCCCNC(=O)[C@@]1(Cc2ccccc2)N=C(c2ccc(OCCCO)cc2)O[C@H]1c1ccccc1`
-0.416

Next up: `COc1ccc(C(=O)Nc2ccc(CN3C(=O)[C@@]4(O[C@@H](CC(=O)N5CCC[C@H]5CO)[C@H]([Si](C)(C)c5ccc(OC)cc5)[C@H]4C)c4ccccc43)cc2)cc1`
1.05

Next up: `[N-]=[N+]=Nc1ccccc1C[C@]1(C(N)=O)N=C(c2ccc(OCCCO)cc2)O[C@H]1c1ccccc1`
-0.194

Next up: O=C1C2C=CC(C(O)c3ccc(F)cc3)N(Nc3ccccc3F)C2C(=O)N1c1ccccc1 (centres undefined)
-0.503

Next up: `C=CCOC(=O)[C@H]1[C@@H]2C(=O)O[C@@H](c3ccccc3)[C@@H](c3ccccc3)N2[C@@H](c2ccc(OCCOC(=O)[C@@H]3C[C@@H]4C(=O)N5CCC[C@H]5C(=O)N4[C@@H]3c3cccc(OCCO)c3)cc2)[C@]12C(=O)Nc1ccccc12`
0.98

Next up: `COC(=O)[C@@]1(Cc2ccc(OC)cc2)[C@H]2c3cc(C(=O)N4CCCC4)n(Cc4ccc(OC)c(OC)c4)c3C[C@H]2CN1C(=O)c1ccccc1`
0.793

Next up: COc1ccc(C(O)C2C=CC3C(=O)NC(=O)C3N2Nc2ccccn2)c2ccccc12 (centres undefined)
-0.127

More entries:
Give the measured composite z-score of `CC(C)OC(=O)C=C1C[C@@H](c2ccccc2C(F)(F)F)O[C@@H](c2ccccc2C(F)(F)F)O1` .
0.134

Next up: `CO[C@H]1O[C@H](CO)[C@@H](OC(=O)Nc2ccc(Br)cc2)[C@H](OC(=O)c2cc3ccccc3[nH]2)[C@H]1OC(=O)c1cc2ccccc2[nH]1`
0.514

Next up: CCN(CC)c1ccc(N2CC=CC34O[C@@H]5/C=C\CCCOC(=O)C5[C@H]3C(=O)N(CCO)[C@@H]4C2=O)cc1 (some centres undefined)
-0.715

Next up: O=C1OCCC=C[C@H]2OC34C=CCN(CCN5CCOCC5)C(=O)[C@H]3N(CCCCCCO)C(=O)[C@@H]4C12 (some centres undefined)
-0.627

Next up: O=C1OCCC/C=C\[C@H]2OC34C=CCN(Cc5ccccc5)C(=O)[C@H]3N(CCCCCCO)C(=O)[C@@H]4C12 (some centres undefined)
-2.14

Next up: `COCCOC(=O)N1C(=O)[C@@]2(c3cc(C#Cc4ccc(OC)cc4)ccc31)[C@H](C(=O)N1CCCCCCC1)[C@H]1C(=O)O[C@H](c3ccccc3)[C@H](c3ccccc3)N1[C@@H]2c1ccc(OCCO)cc1`
2.1
